Target: 42 kD protein found in the cerebral spinal fluid from Alzheimer's disease patients (Homo sapiens, UniProt P15104)
Construct: 42 kD protein found in the cerebral spinal fluid from Alzheimer's disease patients; from tissue; host or cells: cerebral spinal fluid of Alzheimer's disease patients
Sequence (P15104 2-373 limits assumed): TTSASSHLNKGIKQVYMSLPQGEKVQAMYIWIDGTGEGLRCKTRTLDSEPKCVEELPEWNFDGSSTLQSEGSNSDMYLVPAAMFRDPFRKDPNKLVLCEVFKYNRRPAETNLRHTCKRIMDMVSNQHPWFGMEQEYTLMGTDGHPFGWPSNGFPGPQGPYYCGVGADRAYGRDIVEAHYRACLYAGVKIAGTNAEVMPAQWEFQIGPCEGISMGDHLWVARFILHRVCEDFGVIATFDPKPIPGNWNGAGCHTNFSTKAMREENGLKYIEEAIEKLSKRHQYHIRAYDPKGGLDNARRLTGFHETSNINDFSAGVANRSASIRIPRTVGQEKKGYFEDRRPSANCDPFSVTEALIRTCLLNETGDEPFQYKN
Test: Photoaffinity labeling (photoinsertion) of the 42 kD protein in cerebral spinal fluid from Alzheimer's disease patients
Assay type: binding
Measure: Kd

1. [N-]=[N+]=Nc1nc2c(N)ncnc2n1[C@@H]1O[C@H](COP(=O)(O)OP(=O)(O)OP(=O)(O)O)[C@@H](O)[C@H]1O [8-azido-ATP, 8-azidoadenosine 5'-triphosphate] | ~10 µM

====

Biological target: 42 kD protein found in the cerebral spinal fluid from Alzheimer's disease patients (Homo sapiens, UniProt P15104)
Construct: 42 kD protein found in the cerebral spinal fluid from Alzheimer's disease patients; from tissue; host or cells: cerebral spinal fluid of Alzheimer's disease patients
Test: Photoaffinity labeling (photoinsertion) of the 42 kD protein in cerebral spinal fluid from Alzheimer's disease patients
Assay type: binding
Conditions: 42 kD protein in AD CSF; approximate Kd from photoinsertion; read-out: half maximal photoinsertion
Procedure: Each assay was performed on 15 μl of cerebral spinal fluid. Although the amount of cerebral spinal fluid tested remained constant for each experiment, the protein concentration of each sample varied to some degree. […] The quantity of protein, as well as the amount of the radioactivity incorporated into each protein, was quantified by densitometric scans of the exposed X-ray film, or of the stained gel, or by liquid scintillation spectrometry of the protein band excised from the gel. […]
pKd: −log10 of the molar value.
Measure: pKd

1) [N-]=[N+]=Nc1nc(N)c2ncn([C@@H]3O[C@H](COP(=O)(O)OP(=O)(O)OP(=O)(O)O)[C@@H](O)[C@H]3O)c2n1 [2-azido-ATP, 2-azidoadenosine 5'-triphosphate] | ~5.00
